Reference source: the supplement of paper PMC6555819

System: RARb:RXRa (NR concentration 270 nM, RXRa partner concentration 90 nM)
Test: PBM binding z-score (relative to random genomic background probes); higher = stronger binding; sequences stand for … in GC…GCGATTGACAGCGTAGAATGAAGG
Decision: PBM binding z-score compared against 1; not below it gives yes, below it gives no.

{"sequence.content": "CGCCCAAGGTCAAAGGTCAGTGAAGAGATGACGG", "group.label": "yes"}

Is reported PBM binding z-score greater than or equal to 1 here: CCTCAAAGTTCAAGGTAACGTAACAGAAAGCAGC
yes

Is reported PBM binding z-score greater than or equal to 1 here: CAGCTTAGGTCAGGGCCAGTATAGGAGGAACGTT
yes

Tell me whether PBM binding z-score is at least 1 here: ACAGACAGGTGATGAGGGTAACTCAGGCTATCAT
no

Check the entry CAAACTAGGTCAAGAAGTCAAAGTCCGCTTCCCG : does PBM binding z-score equal or exceed 1?
yes

Is the recorded value of PBM binding z-score equal to or greater than 1 for this sequence? TTACCAAGGTGACGGTCGTTGATCCCTCTGTAGA
yes

----------
Test system: THRa homodimer (NR concentration 90 nM)
Test: PBM binding z-score (relative to random genomic background probes); higher = stronger binding; sequences stand for … in GC…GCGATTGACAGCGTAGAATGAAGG
yes means recorded PBM binding z-score is 1 or above; no means it is below 1.

Consider the following illustrative entries.
{"sequence.content": "CGAACTAGGTCATTGACAGCACAGTGAATAGTAA", "group.label": "no"}
{"sequence.content": "CTTATTAGTTGACCATAAGGGCAACCGAAGCTCG", "group.label": "yes"}
{"sequence.content": "TCTACTAGTTGATTAGGGCAACCGAAACAGCGGA", "group.label": "no"}
{"sequence.content": "TCGAGTAGGTTAGTCGGGGTATTCAGCCAACATA", "group.label": "no"}
{"sequence.content": "ACTTACAGGTCAACGAGGTTATAGCACGCGTATA", "group.label": "yes"}
{"sequence.content": "GCATATAGGTAATACAAGGTGAAACTCCGATTGT", "group.label": "yes"}
{"sequence.content": "CCTTGCGGGTCACTCCAGGTTATAGCATCGGAGT", "group.label": "no"}
{"sequence.content": "CCAGACAGGCGAGAAGGTAACTCAGCCTCGATTA", "group.label": "no"}
{"sequence.content": "CAACCTAGGTCAAGGTCAAAGTCGGTTTGTGCCA", "group.label": "yes"}
{"sequence.content": "GCTAGTTGGTCTGTAAAAGGTCACACACCGGTCG", "group.label": "yes"}

Is it the case that CCCAGTTGGTCAAGGTCACACACGCTATAGGTAC has PBM binding z-score reaching or exceeding 1?
yes

API: above_or_equal(metric=PBM binding z-score, cutoff=1) for item AGAACGAGGGCACGCTGTGTTGATAGCAGAGTAG
no

Has GCGACTTGGGCAAAGCAGGTTACCATAAGGTTGG a recorded PBM binding z-score greater than or equal to 1?
no

PBM binding z-score >= 1 for GCAGACAGGTGAAACGCAGGTAGCTCAGGGTGGC ?
no

Is reported PBM binding z-score greater than or equal to 1 here: CGTACAAGGTCAGCAGGTCAGTGAAAGCGACGTG
yes

Please check the record ACTATTAGTTGAGACGAGGGCAACCAATAGGTTG and state if its PBM binding z-score is at or above 1.
no

Identify whether the reported PBM binding z-score of the following sequence is 1 or greater: ACTAGCAGGGCAAGGGTCACTCAAGATTAGTCCG
no

Hi, just wondering whether AGTCAAAGTTCATCTAGGTAGCGTAAGATATGCT shows PBM binding z-score of 1 or higher.
no

Check the entry AGAATGAGGTTATTAAGATCAGGGAATTGCGGTC : does PBM binding z-score equal or exceed 1?
no

Could you please find out whether TCTTGTAAATCAAGCAGGTTAAGAAAGCCTGAGT has PBM binding z-score that meets 1 or exceeds it?
no

Please check the record CCGACTGGGGCAAGGTTCCCATAACGCACAGCCA and state if its PBM binding z-score is at or above 1.
no

Reported PBM binding z-score reaches at least 1 for CATACAGGGTCAGCTATGCCAGAGTAGGGACGGC ?
no

Given CGTCGAAGGTCAAGGTCAGTGAAAGAGACTCGAA , state whether its PBM binding z-score is at least 1.
yes

# check: PBM binding z-score of GCTAGTTGGTCAGTAAAAGGTCACCCACCGGTCG is greater than or equal to 1
yes

In plain terms: is recorded PBM binding z-score at least 1 for ACTATTAGTTGAGACGAGCGCAACCGATAGGTTG ?
no

----------
Tested on: PPARg:RXRa IVT, anti-PPARg (NR concentration 270 nM, RXRa partner concentration 90 nM)
Assay: PBM binding z-score (relative to random genomic background probes); higher = stronger binding; sequences stand for … in GC…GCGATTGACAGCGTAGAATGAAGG
Items are presented alongside their recorded PBM binding z-score.

{"sequence.content": "CAAACTAGGTCAAGGTCCAAGTCGGTTTGTGCCA", "PBM binding z-score": 8.37}

Now examine the next entry.
For this sequence ( CCTAGCAGGCCAAACTGGGTCACTCAAGGCTTGA ), measured PBM binding z-score is 4.34

----------
Tested on: LXRb homodimer (NR concentration 270 nM)
Experiment: PBM binding z-score (relative to random genomic background probes); higher = stronger binding; sequences stand for … in GC…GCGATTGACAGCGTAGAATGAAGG
recorded.endpoint: PBM binding z-score
Number only, please.

Please review the entries below; each comes with its answer.
{"sequence.content": "CCTACTGGGCCAAAAAGGTCATTAATGCCGATAA", "recorded.endpoint": "PBM binding z-score", "observed": 0.494}
{"sequence.content": "GATACAGGGTCAAGCCCAGAGTACGCGTATTGAT", "recorded.endpoint": "PBM binding z-score", "observed": -0.376}
{"sequence.content": "CCGACTAGGTTATGGGGCATTCAGGCAACGGTGA", "recorded.endpoint": "PBM binding z-score", "observed": -0.646}
{"sequence.content": "ATCTCTAGGCAACCAAGTTCAGTGAATGCCGAAC", "recorded.endpoint": "PBM binding z-score", "observed": 0.281}
{"sequence.content": "CCTACTGGGCCAAAGGTCATTAATTCCAATGCTC", "recorded.endpoint": "PBM binding z-score", "observed": 0.938}

Measured PBM binding z-score of GTACCAAGGTGAATATGTCGTTGATGAGTAGGCG : -0.329

So, TCATATAGGTAAAAGGTGCAAGTCGGTGTGGTAA ? Its PBM binding z-score was 0.0143

So, TCTTGTAGATCAAGCAGGGTAAGAAAGCCTGAGT ? Its PBM binding z-score was -0.511

Reported PBM binding z-score of TCTTGTAGATCAACAGGAGGTTTAGAAAGATCGA : -0.559

So, ACAGACAGGTGAAGAAGGTAACTCAGGCTATCAT ? Its PBM binding z-score was -0.276

Notebook: CCGACTGGGGCAAAGATTACCATACTCAGTACGA , PBM binding z-score read as -1.19

Looking up GTACCAAGGTGAATAGGTCATTGATGAGTAGGCG , I found its PBM binding z-score recorded as -0.295

Per the records, this sequence ( TAGCCTAGGTCATGCGGGCGAGTATAGTGTCGGC ) has PBM binding z-score equal to -0.906

----------
Tested on: RARa:RXR (NR concentration 270 nM, RXRa partner concentration 90 nM)
Assay: PBM binding z-score (relative to random genomic background probes); higher = stronger binding; sequences stand for … in GC…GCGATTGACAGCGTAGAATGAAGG
Record t whenever PBM binding z-score is at 2 or higher; record f when lower.

{"sequence.content": "GGAACGAGGGCATTCGAGTTGCTAGCATGGCGAT", "group.label": "f"}
{"sequence.content": "TCATAAAGGTAATACAGGTGAAAGTCGGCATCTA", "group.label": "f"}
{"sequence.content": "AGAATGCGGTTAAGATCAGGGAAACAGAATACAT", "group.label": "f"}
{"sequence.content": "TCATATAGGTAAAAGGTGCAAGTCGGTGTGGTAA", "group.label": "f"}
{"sequence.content": "GTACCAAGGTGAATGGGTCGTTGATGAGTAGGCG", "group.label": "f"}

Hi, just wondering whether CCTACTGGGCCACGAAAGGTCACTGATTCAGTGA shows PBM binding z-score of 2 or higher.
t

Assess whether reported PBM binding z-score for ATCGCTAGGTAACCAAGTTCAGTGAATGCCGAAC sits at 2 or higher.
f

Decide: PBM binding z-score of CTACCAAGGTGAGCAAGGTCGTTGATTACTATTC >= 2?
f

Record GCTGCTAGGTCAGGTTAGTCAGCTAACGGGTACG ; criterion: PBM binding z-score no lower than 2. Met?
f

Evaluate CGTCAAAGTTCAAGGTAACATAACAGAAAGCAGC : PBM binding z-score at minimum 2?
t

Identify whether the reported PBM binding z-score of the following sequence is 2 or greater: CGAACTAGGTCATTGACAGGACAGCGAATAGTAA
t
